Below, each entry is listed with its recorded activity change, negative = inhibition.
assay: NFAT Signaling Pathway (AID 444); conditions: Jurkat NFAT-bla M1, carbachol, beta-lactamase ratio, 5 h; at 7.69 µM (top of the series) unless noted;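 note: carbachol stimulus at about its EC50 of 1 µM final; % is set by controls: 0 for no effect and ±100 for the full control effect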
Inconclusive results are not listed. Activity calls are given as the source filed them. Calls come from the whole dose curve; as a rule, active = well fitted curve in either direction with a large enough effect (not every such curve was filed as active); inconclusive = small, poorly fitted or top-dose-only effect, or another doubt; inactive = flat fitted curve, though single readings scatter.

Answered cases to consult:
smiles=CCc1c(C)c(C#N)c2nc3ccccc3n2c1-n1nc(C)cc1C observable="activity change, negative = inhibition" measured_result="-9.34% [at 17.2 µM] (inactive)"
smiles=CN(C)Cc1ccccc1-c1ccc2ncnc(N(C)C)c2c1 observable="activity change, negative = inhibition" measured_result="-2.16% (inactive)"
smiles=CCNc1ncc2nc(CCc3ccccc3)c(=O)n(C3CC3)c2n1 observable="activity change, negative = inhibition" measured_result="11.9% (inactive)"

// below: activity change, negative = inhibition requested for another compound
Exercise: Give reported activity change, negative = inhibition value for CCNc1ncc2nc(CCc3ccccc3)c(=O)n(Cc3cccc(OC)c3)c2n1
Solution: -6.29% (inactive)

---

biological target: Dual specificity protein kinase CLK4 (Homo sapiens) (UniProt Q9HAZ1); assay: qHTS Assay for Inhibitors of CDC-like Kinase 4 (ADP-FP Assay) (AID 1795); details: Transcreener ADP fluorescence polarization; series mostly up to 50 µM; note: nearly all actives have a fitted effect of over 60% in size
Sequence (Q9HAZ1 whole entry, looked up): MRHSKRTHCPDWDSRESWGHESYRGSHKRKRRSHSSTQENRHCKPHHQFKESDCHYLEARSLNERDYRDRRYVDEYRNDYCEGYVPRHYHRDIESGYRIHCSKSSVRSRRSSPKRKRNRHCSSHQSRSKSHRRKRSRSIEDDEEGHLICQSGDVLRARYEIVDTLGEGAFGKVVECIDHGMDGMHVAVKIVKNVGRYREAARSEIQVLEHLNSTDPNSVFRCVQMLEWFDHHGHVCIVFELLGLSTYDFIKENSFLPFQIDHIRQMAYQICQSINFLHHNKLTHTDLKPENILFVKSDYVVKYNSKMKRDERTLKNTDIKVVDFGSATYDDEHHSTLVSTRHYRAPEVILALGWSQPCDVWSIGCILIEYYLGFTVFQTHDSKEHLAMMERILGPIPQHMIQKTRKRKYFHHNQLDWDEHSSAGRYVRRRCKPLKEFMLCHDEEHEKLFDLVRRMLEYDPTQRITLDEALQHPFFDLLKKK
Results filed as inconclusive are left out. Active and inactive are the calls of the source. The call rests on the fitted dose curve; in most records, active means well fitted inhibition curve with a large enough effect; inconclusive means small, poorly fitted or top-dose-only effect; inactive means flat fitted curve, though single readings scatter.
Pick one: active, inactive

smiles=COc1ccccc1CNc1ncncc1-c1ccccc1C(F)(F)F category=inactive
smiles=CCNc1ncc2ncc(=O)n(Cc3ccc(F)cc3)c2n1 category=active
smiles=COc1ccc(CNc2cc(-c3cccc(NS(C)(=O)=O)c3)ncn2)c(OC)c1 category=inactive

Exercise: Returns: the outcome recorded for COc1ccc(-n2c(=O)c(CCc3ccccc3)nc3cnc(OC)nc32)cc1 in this assay.
Solution: inactive

Exercise: Returns: the outcome recorded for COc1cccc(-c2ccc3ncnc(Nc4ccccc4)c3c2)c1 in this assay.
Solution: active

---

system: DIV17; assay: qHTS profiling for inhibitors of Plasmodium falciparum proliferation (AID 504749); note: nearly all actives have a fitted effect of over 60% in size; settings: P. falciparum in erythrocytes, SYBR Green DNA, 72 h; series mostly up to 28.7 µM
Results filed as inconclusive are left out. Active and inactive are the calls of the source. Calls come from the whole dose curve; as a rule, active = well fitted inhibition curve with a large enough effect; inconclusive = small, poorly fitted or top-dose-only effect; inactive = flat fitted curve, though single readings scatter. Bridge positions count the residues as written; N and C are the ends. Square brackets hold non-standard residues; d marks the D form. Peptide text beside a SMILES is read from it. * marks the point of attachment. Octanoyl(6-Me) = CCC(C)CCCCC(=O)*; Dab = NCC[CH](N)C(=O)O
Pick one: active, inactive

Sample answers from the record:
molecule="CO[C@@H]1[C@@H](OC2OC(C)C(OC3CC(C)(O)C(OC(=O)CC(C)C)C(C)O3)C(N(C)C)C2O)[C@@H](CC=O)C[C@@H](C)C(=O)/C=C\\C2O[C@H]2C[C@@H](C)OC(=O)C[C@H]1OC(C)=O (some centres undefined)" test_system=DIV17 category=active
molecule=CC(C)CN(C[C@@H](OP(=O)(O)O)[C@H](Cc1ccccc1)NC(=O)O[C@@H]1CCOC1)S(=O)(=O)c1ccc(N)cc1 test_system=DIV17 category=inactive
molecule="C=C[C@]1(C)C[C@@H](OC(=O)CSCCN(CC)CC)[C@]2(C)C(C)CC[C@]3(CCC(=O)[C@H]32)[C@@H](C)[C@@H]1O (some centres undefined)" test_system=DIV17 category=active
molecule=CO/N=C(/C(=O)N[C@@H]1C(=O)N2C(C(=O)O)=CCS[C@H]12)c1csc(N)n1 test_system=DIV17 category=inactive

Exercise: Returns: the outcome recorded for CCC(=O)O[C@@H](OP(=O)(CCCCc1ccccc1)CC(=O)N1C[C@H](C2CCCCC2)C[C@H]1C(=O)O)C(C)C (some centres undefined) in this assay.
Solution: inactive

Exercise: Returns: the outcome recorded for CCN1/C(=C/C=C/C=C/c2sc3ccccc3[n+]2CC)Sc2ccccc21 in this assay.
Solution: active

Exercise: Returns: the outcome recorded for CCC(C)CCCCC(=O)NC(CCN)C(=O)NC(C(=O)NC(CCN)C(=O)NC1CCNC(=O)C(C(C)O)NC(=O)C(CCN)NC(=O)C(CCN)NC(=O)C(CC(C)C)NC(=O)C(Cc2ccccc2)NC(=O)C(CCN)NC1=O)C(C)O (centres undefined) ({Octanoyl(6-Me)}-[Dab]T[Dab][Dab][Dab]FL[Dab][Dab]T; lactam 4-C; configuration not given here) in this assay.
Solution: inactive

Exercise: Returns: the outcome recorded for NC1=NC(S)C2N=CN=C2N1 (centres undefined) in this assay.
Solution: inactive

Exercise: Returns: the outcome recorded for CCC(C)n1ncn(-c2ccc(N3CCN(c4ccc(OCC5COC(Cn6cncn6)(c6ccc(Cl)cc6Cl)O5)cc4)CC3)cc2)c1=O (centres undefined) in this assay.
Solution: inactive
